Recorded values, source the RNAGym collection of RNA variant scans (doi:10.7554/elife.80360).

Below: a set of entries, each annotated with reported self-cleavage.
B1: Hairpin Ribozyme (parent)
chain: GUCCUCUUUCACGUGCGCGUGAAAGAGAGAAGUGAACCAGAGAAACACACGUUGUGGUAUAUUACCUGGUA

Variants of: B1
assay_info: self-cleavage, relative activity (ratio to wild type); higher = more cleavage; co-transcriptional

# self-cleavage lookup, item G21A U52C 0.817

# self-cleavage lookup, item U63G C65U 0.11
